Reference for the values: ChEMBL document CHEMBL4622954

# SYSTEM: UniProt:P28223
# ASSAY_CONTEXT: read-out: Ki
# Description: Displacement of [3H]-Ketanserin from 5-HT2A receptor (unknown origin) incubated for 90 mins by microbeta counting method
Please go through the items and note down their Ki.
The response must be a number in nM with no trailing unit.

Incoming: For UniProt:P28223, provide Ki of COc1cc2c3c(c1OCC1CC1)-c1cc(N)ccc1CC3N(C)CC2 (racemic) please.
Outgoing: 110

Incoming: And what about the compound COc1cc2c3c(c1OCC1CC1)-c1cc(NS(C)(=O)=O)ccc1CC3N(C)CC2 (racemic) ?
Outgoing: 433

Incoming: And what about the compound C=CCOc1c(OC)cc2c3c1-c1cc(N(C)C)ccc1CC3N(C)CC2 (racemic) ?
Outgoing: 318

Incoming: And what about the compound COc1cc2c3c(c1OCC1CC1)-c1cc(N(C)C)ccc1CC3N(C)CC2 (racemic) ?
Outgoing: 878

Incoming: And what about the compound CCCC(=O)Nc1ccc2c(c1)-c1c(OCC3CC3)c(OC)cc3c1C(C2)N(C)CC3 (racemic) ?
Outgoing: 665

Incoming: And what about the compound CN(C)c1ccc2c(c1)-c1cccc3c1C(C2)N(C)CC3 (racemic) ?
Outgoing: 566

* * *

# SYSTEM: D(4) dopamine receptor (Homo sapiens)
# Sequence (P21917 whole entry): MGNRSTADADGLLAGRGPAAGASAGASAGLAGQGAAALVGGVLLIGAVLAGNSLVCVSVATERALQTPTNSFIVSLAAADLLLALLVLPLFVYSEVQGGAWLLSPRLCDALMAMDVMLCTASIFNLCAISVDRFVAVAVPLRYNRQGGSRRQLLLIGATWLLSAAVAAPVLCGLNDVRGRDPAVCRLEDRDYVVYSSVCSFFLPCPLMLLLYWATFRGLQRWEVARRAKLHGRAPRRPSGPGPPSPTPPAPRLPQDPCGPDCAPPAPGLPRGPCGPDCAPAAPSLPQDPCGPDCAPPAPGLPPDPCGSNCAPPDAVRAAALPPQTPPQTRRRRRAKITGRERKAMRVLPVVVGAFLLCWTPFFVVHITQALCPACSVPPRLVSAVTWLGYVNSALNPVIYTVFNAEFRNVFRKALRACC
# EXPERIMENT_SUMMARY: Displacement of [3H]-N-Methylspiperone from human dopamine D4 receptor expressed in stable HEK cells incubated for 90 mins by microbeta counting method
# Format: cell-based
# ASSAY_CONTEXT: read-out: Ki
EXPERIMENTAL_ENDPOINT: Ki (nM)
The response must be a number in nM with no trailing unit.

Incoming: For D(4) dopamine receptor (Homo sapiens), provide Ki of CN1CCc2cccc3c2C1Cc1ccc2nc(N)sc2c1-3 (racemic) please.
Outgoing: 481

* * *

# SYSTEM: 5-hydroxytryptamine receptor 7 (Homo sapiens, UniProt P34969)
# Sequence (P34969 whole entry): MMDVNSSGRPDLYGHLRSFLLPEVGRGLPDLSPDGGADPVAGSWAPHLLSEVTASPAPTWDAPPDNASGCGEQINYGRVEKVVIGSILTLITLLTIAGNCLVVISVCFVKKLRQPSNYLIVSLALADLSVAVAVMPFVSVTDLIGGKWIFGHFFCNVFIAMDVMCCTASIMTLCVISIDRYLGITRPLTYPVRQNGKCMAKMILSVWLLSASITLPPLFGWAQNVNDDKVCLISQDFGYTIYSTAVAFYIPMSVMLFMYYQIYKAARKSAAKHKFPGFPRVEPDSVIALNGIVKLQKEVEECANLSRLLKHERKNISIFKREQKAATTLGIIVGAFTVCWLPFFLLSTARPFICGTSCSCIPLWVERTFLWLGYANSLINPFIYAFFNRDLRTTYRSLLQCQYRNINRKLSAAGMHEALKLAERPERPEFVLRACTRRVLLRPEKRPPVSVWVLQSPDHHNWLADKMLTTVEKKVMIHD
# EXPERIMENT_SUMMARY: biochemical
# Description: Displacement of [3H]-LSD from human 5-HT7A receptor expresssed in stable HEK cell membrane incubated for 90 mins by microbeta counting method
EXPERIMENTAL_ENDPOINT: pKi
Quick note: pKi means taking -log10 of the concentration in moles per liter.

Incoming: Entry under review: C#CCOc1c(OC)cc2c3c1-c1cc(NS(C)(=O)=O)ccc1CC3N(C)CC2 (racemic) . Reported pKi?
Outgoing: 7.51

Incoming: And what about the compound COc1cc2c3c(c1OC)-c1cc(N(C)C)ccc1CC3N(C)CC2 (racemic) ?
Outgoing: 7.14

Incoming: And what about the compound COc1cc2c3c(c1OCC1CC1)-c1cc(N(C)C)ccc1CC3N(C)CC2 (racemic) ?
Outgoing: 6.12

Incoming: And what about the compound COc1cc2c3c(c1OCC1CC1)-c1cc(NS(C)(=O)=O)ccc1CC3N(C)CC2 (racemic) ?
Outgoing: 6.94

Incoming: And what about the compound COc1cc2c3c(c1OC)-c1cc(NC(N)=O)ccc1CC3N(C)CC2 (racemic) ?
Outgoing: 6.54

Incoming: And what about the compound C=CCOc1c(OC)cc2c3c1-c1cc(N(C)C)ccc1CC3N(C)CC2 (racemic) ?
Outgoing: 6.51

Incoming: And what about the compound CCCC(=O)Nc1ccc2c(c1)-c1c(OC)c(OC)cc3c1C(C2)N(C)CC3 (racemic) ?
Outgoing: 7.17

Incoming: And what about the compound COc1cc2c3c(c1OC)-c1cc(NS(C)(=O)=O)ccc1CC3N(C)CC2 (racemic) ?
Outgoing: 7.05

Incoming: And what about the compound C=CCOc1c(OC)cc2c3c1-c1cc(NC(=O)CCC)ccc1CC3N(C)CC2 (racemic) ?
Outgoing: 6.73

Incoming: And what about the compound CN(C)c1ccc2c(c1)-c1cccc3c1C(C2)N(C)CC3 (racemic) ?
Outgoing: 7.77

Incoming: And what about the compound C=CCOc1c(OC)cc2c3c1-c1cc(NS(C)(=O)=O)ccc1CC3N(C)CC2 (racemic) ?
Outgoing: 7.38

Incoming: And what about the compound CCCN1CCc2cccc3c2C1Cc1cc2sc(N)nc2cc1-3 (racemic) ?
Outgoing: 6.88

Incoming: And what about the compound COc1cc2c3c(c1OCC1CC1)-c1cc(NC(N)=O)ccc1CC3N(C)CC2 (racemic) ?
Outgoing: 6.45

Incoming: And what about the compound C#CCOc1c(OC)cc2c3c1-c1cc(NC(=O)CCC)ccc1CC3N(C)CC2 (racemic) ?
Outgoing: 6.34

Incoming: And what about the compound CCCN1CCc2cccc3c2C1Cc1ccc(N)cc1-3 (centres undefined) ?
Outgoing: 7.20

Incoming: And what about the compound CCCN1CCc2cccc3c2C1Cc1ccc(NS(C)(=O)=O)cc1-3 (racemic) ?
Outgoing: 6.70

Incoming: And what about the compound COc1cc2c3c(c1OCC1CC1)-c1cc(N)ccc1CC3N(C)CC2 (racemic) ?
Outgoing: 6.98

Incoming: And what about the compound C#CCOc1c(OC)cc2c3c1-c1cc(NC(N)=O)ccc1CC3N(C)CC2 (racemic) ?
Outgoing: 6.91

Incoming: And what about the compound COc1cc2c3c(c1OCC1CC1)-c1cc(NC(C)=O)ccc1CC3N(C)CC2 (racemic) ?
Outgoing: 6.20

* * *

Please go through the items and note down their pKi.
# SYSTEM: 5-hydroxytryptamine receptor 2A (Homo sapiens, UniProt P28223);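 note: [3H]-Ketanserin displacement from the 5-HT2A receptor after 90 min incubation, with bound label read by MicroBeta counting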
# Sequence (P28223 whole entry): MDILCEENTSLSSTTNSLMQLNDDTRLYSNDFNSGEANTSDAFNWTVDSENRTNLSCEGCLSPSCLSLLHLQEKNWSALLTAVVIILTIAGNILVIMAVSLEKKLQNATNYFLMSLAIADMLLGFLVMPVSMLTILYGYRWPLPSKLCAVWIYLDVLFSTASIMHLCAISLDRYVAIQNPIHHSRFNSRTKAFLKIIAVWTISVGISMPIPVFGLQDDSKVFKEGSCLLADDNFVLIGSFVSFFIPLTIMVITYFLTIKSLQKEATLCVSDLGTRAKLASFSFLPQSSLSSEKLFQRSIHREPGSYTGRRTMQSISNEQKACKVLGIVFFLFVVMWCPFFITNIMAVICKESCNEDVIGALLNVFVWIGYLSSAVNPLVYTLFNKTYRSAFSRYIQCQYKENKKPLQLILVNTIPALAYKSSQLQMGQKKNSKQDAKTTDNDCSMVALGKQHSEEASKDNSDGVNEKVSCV
# ASSAY_CONTEXT: read-out: Ki
Quick note: pKi means taking -log10 of the concentration in moles per liter.

Incoming: Entry under review: C#CCOc1c(OC)cc2c3c1-c1cc(NC(=O)CCC)ccc1CC3N(C)CC2 (racemic) . Reported pKi?
Outgoing: 5.98

Incoming: And what about the molecule C=CCOc1c(OC)cc2c3c1-c1cc(NC(=O)CCC)ccc1CC3N(C)CC2 (racemic) ?
Outgoing: 6.35

Incoming: And what about the molecule COc1cc2c3c(c1OCC1CC1)-c1cc(NC(C)=O)ccc1CC3N(C)CC2 (racemic) ?
Outgoing: 6.01

Incoming: And what about the molecule CN1CCc2cccc3c2C1Cc1ccc2nc(N)sc2c1-3 (racemic) ?
Outgoing: 5.98

Incoming: And what about the molecule COc1cc2c3c(c1OC)-c1cc(N(C)C)ccc1CC3N(C)CC2 (racemic) ?
Outgoing: 6.53

Incoming: And what about the molecule CCCC(=O)Nc1ccc2c(c1)-c1c(OC)c(OC)cc3c1C(C2)N(C)CC3 (racemic) ?
Outgoing: 6.38

Incoming: And what about the molecule COc1cc2c3c(c1OCC1CC1)-c1cc(NC(N)=O)ccc1CC3N(C)CC2 (racemic) ?
Outgoing: 6.07

Incoming: And what about the molecule C=CCOc1c(OC)cc2c3c1-c1cc(NS(C)(=O)=O)ccc1CC3N(C)CC2 (racemic) ?
Outgoing: 6.18

Incoming: And what about the molecule C#CCOc1c(OC)cc2c3c1-c1cc(NS(C)(=O)=O)ccc1CC3N(C)CC2 (racemic) ?
Outgoing: 5.88

* * *

# SYSTEM: UniProt:P14416
# Sequence (P14416 whole entry): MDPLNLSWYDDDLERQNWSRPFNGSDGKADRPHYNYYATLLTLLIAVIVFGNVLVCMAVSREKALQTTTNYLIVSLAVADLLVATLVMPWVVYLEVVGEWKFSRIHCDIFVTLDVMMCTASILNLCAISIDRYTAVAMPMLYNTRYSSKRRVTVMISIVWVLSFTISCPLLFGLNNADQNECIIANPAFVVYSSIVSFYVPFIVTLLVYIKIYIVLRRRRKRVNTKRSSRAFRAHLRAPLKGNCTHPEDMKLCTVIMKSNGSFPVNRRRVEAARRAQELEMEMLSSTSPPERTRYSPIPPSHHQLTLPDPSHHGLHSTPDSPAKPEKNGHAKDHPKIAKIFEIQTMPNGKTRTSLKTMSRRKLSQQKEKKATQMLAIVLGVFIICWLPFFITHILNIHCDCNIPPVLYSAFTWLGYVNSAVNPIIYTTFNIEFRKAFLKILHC
# EXPERIMENT_SUMMARY: biochemical
# Description: Displacement of [3H]-N-Methylspiperone from human dopamine D2 receptor expressed in stable fibroblast cells incubated for 90 mins by microbeta counting method
EXPERIMENTAL_ENDPOINT: Ki (µM)
The response must be a number in µM with no trailing unit.

Incoming: Entry under review: CN1CCc2cccc3c2C1Cc1ccc2nc(N)sc2c1-3 (racemic) . Reported Ki?
Outgoing: 1.74

* * *

Please go through the items and note down their pKi.
# SYSTEM: 5-hydroxytryptamine receptor 1A (Homo sapiens)
# Sequence (P08908 whole entry): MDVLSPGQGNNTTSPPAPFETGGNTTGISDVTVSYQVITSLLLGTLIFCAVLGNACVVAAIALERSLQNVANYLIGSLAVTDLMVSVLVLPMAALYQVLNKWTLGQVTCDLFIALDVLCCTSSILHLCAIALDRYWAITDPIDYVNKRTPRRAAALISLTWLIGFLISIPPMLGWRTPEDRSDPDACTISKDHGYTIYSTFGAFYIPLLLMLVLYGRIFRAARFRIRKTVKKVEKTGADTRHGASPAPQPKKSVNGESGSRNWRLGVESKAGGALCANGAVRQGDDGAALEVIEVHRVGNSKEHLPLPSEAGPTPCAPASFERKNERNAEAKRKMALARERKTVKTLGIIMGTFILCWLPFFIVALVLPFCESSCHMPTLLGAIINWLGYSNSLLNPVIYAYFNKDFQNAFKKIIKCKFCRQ
# EXPERIMENT_SUMMARY: biochemical
# Description: Displacement of [3H]-WAY100635 from human 5-HT1A receptor expresssed in stable CHO cell membrane incubated for 90 mins by microbeta counting method
Quick note: pKi means taking -log10 of the concentration in moles per liter.

Incoming: For 5-hydroxytryptamine receptor 1A (Homo sapiens), provide pKi of C=CCOc1c(OC)cc2c3c1-c1cc(NS(C)(=O)=O)ccc1CC3N(C)CC2 (racemic) please.
Outgoing: 6.39

Incoming: And what about the compound CN1CCc2cccc3c2C1Cc1cc2sc(N)nc2cc1-3 (racemic) ?
Outgoing: 7.64

Incoming: And what about the compound CN1CCc2cccc3c2C1Cc1ccc(NS(C)(=O)=O)cc1-3 (racemic) ?
Outgoing: 6.88

Incoming: And what about the compound COc1cc2c3c(c1OCC1CC1)-c1cc(NS(C)(=O)=O)ccc1CC3N(C)CC2 (racemic) ?
Outgoing: 6.41

Incoming: And what about the compound COc1cc2c3c(c1OCC1CC1)-c1cc(N(C)C)ccc1CC3N(C)CC2 (racemic) ?
Outgoing: 5.84

Incoming: And what about the compound COc1cc2c3c(c1OCC1CC1)-c1cc(NC(C)=O)ccc1CC3N(C)CC2 (racemic) ?
Outgoing: 5.81

Incoming: And what about the compound C#CCOc1c(OC)cc2c3c1-c1cc(NC(N)=O)ccc1CC3N(C)CC2 (racemic) ?
Outgoing: 6.04

Incoming: And what about the compound CCCC(=O)Nc1ccc2c(c1)-c1c(OC)c(OC)cc3c1C(C2)N(C)CC3 (racemic) ?
Outgoing: 6.33

Incoming: And what about the compound CCCN1CCc2cccc3c2C1Cc1cc2sc(N)nc2cc1-3 (racemic) ?
Outgoing: 8.12

Incoming: And what about the compound C#CCOc1c(OC)cc2c3c1-c1cc(NC(=O)CCC)ccc1CC3N(C)CC2 (racemic) ?
Outgoing: 6.18

Incoming: And what about the compound CN(C)c1ccc2c(c1)-c1cccc3c1C(C2)N(C)CC3 (racemic) ?
Outgoing: 6.34

Incoming: And what about the compound CCCC(=O)Nc1ccc2c(c1)-c1cccc3c1C(C2)N(CCC)CC3 (racemic) ?
Outgoing: 7.82

Incoming: And what about the compound CN1CCc2cccc3c2C1Cc1ccc(NC(N)=O)cc1-3 (racemic) ?
Outgoing: 7.31

Incoming: And what about the compound CN1CCc2cccc3c2C1Cc1ccc2nc(N)sc2c1-3 (racemic) ?
Outgoing: 6.73

Incoming: And what about the compound CCCN1CCc2cccc3c2C1Cc1ccc(NS(C)(=O)=O)cc1-3 (racemic) ?
Outgoing: 7.64

Incoming: And what about the compound CCCN1CCc2cccc3c2C1Cc1ccc(N)cc1-3 (stereo not given) ?
Outgoing: 7.52

Incoming: And what about the compound CCCN1CCc2cccc3c2C1Cc1ccc(NC(C)=O)cc1-3 (racemic) ?
Outgoing: 7.68

Incoming: And what about the compound CCCN1CCc2cccc3c2C1Cc1ccc(N(C)C)cc1-3 (racemic) ?
Outgoing: 6.59

Incoming: And what about the compound CCCN1CCc2cccc3c2C1Cc1ccc(NC(N)=O)cc1-3 (racemic) ?
Outgoing: 6.63

Incoming: And what about the compound C=CCOc1c(OC)cc2c3c1-c1cc(NC(=O)CCC)ccc1CC3N(C)CC2 (racemic) ?
Outgoing: 6.33

Incoming: And what about the compound COc1cc2c3c(c1OCC1CC1)-c1cc(NC(N)=O)ccc1CC3N(C)CC2 (racemic) ?
Outgoing: 5.89

Incoming: And what about the compound C#CCOc1c(OC)cc2c3c1-c1cc(NS(C)(=O)=O)ccc1CC3N(C)CC2 (racemic) ?
Outgoing: 6.29

Incoming: And what about the compound COc1cc2c3c(c1OC)-c1cc(N(C)C)ccc1CC3N(C)CC2 (racemic) ?
Outgoing: 5.80

Incoming: And what about the compound CCCC(=O)Nc1ccc2c(c1)-c1c(OCC3CC3)c(OC)cc3c1C(C2)N(C)CC3 (racemic) ?
Outgoing: 6.37

Incoming: And what about the compound CCCN1CCc2cccc3c2C1Cc1ccc2nc(N)sc2c1-3 (racemic) ?
Outgoing: 7.03
